The values you see were collected from patent US20050256093A1.

// reported MIC per item
test system: Streptococcus faecium EI19; assay: agar cup assay MIC; format: cell-based; conditions: Enterococcus faecium; Streptococcus faecium EI19 (Penicillin resistant); agar with 5% sheep blood

{"Compound": "CC(=O)O[C@H]1C[C@@]2(C)C(CC=C3[C@]2(C)CCC2[C@H](C)[C@H](O)CC[C@]32C)[C@@H]1[C@H](CCCC(C)C)C(=O)NCCN(CCN)CCN (stereo partly shown) [Compound 106]", "Comparator": "=", "MIC [µg/mL]": 16}
{"Compound": "CC(=O)O[C@H]1C[C@@]2(C)C(C[C@@H](O)C3[C@@]4(C)CC[C@@H](O)[C@@H](C)C4CC[C@@]32C)[C@@H]1[C@H](CCCC(C)C)C(=O)NCCN(CCN)CCN (stereo partly shown) [Compound 101]", "Comparator": "=", "MIC [µg/mL]": 16}
{"Compound": "CC(=O)O[C@H]1C[C@@]2(C)C(C[C@@H](O)C3[C@@]4(C)CC[C@H](O)[C@@H](C)C4CC[C@@]32C)[C@@H]1[C@H](CCCC(C)C)C(=O)NCCN(CCN)CCN (stereo partly shown) [Compound 105]", "Comparator": "=", "MIC [µg/mL]": 64}
{"Compound": "CC(C)CCCC(C(=O)NCCN(CCN)CCN)C1=C2C[C@@H](O)C3[C@@]4(C)CC[C@@H](O)[C@@H](C)C4CC[C@]3(C)[C@@]2(C)CC1 (stereo partly shown) [Compound 104]", "Comparator": ">", "MIC [µg/mL]": 64}

###

// reported MIC per item
Tested on: Saccaromyces cervisiae ZZ7
Experiment: agar cup assay MIC
Type: cell-based
Settings: Saccharomyces cerevisiae
Experimental: In vitro investigations have shown a significant potency of the compounds of the invention against a large number of bacteria including gram-positive and gram-negative strains (Staphyiococci, Streptococci, Corynebacteriae, Mycobacteriae, Proteus, Propionibacterium, Pseudomonas, Neisseriae, E. coli) and fungal strains (Candida and Aspergillus). […] Plates were appropriately incubated and zone diameters of growth inhibition were measured using an electronic caliper. […]

{"Compound": "CC(=O)O[C@H]1C[C@@]2(C)C(CCC3[C@@]4(C)CC[C@@H](OS(=O)(=O)O)[C@@H](C)C4CC[C@@]32C)[C@@H]1[C@H](CCCC(C)C)C(=O)NCCCN(CCCN)CCCN (stereo partly drawn)", "Comparator": "=", "MIC, µg/mL": 16}
{"Compound": "CC(C)CCCC(C(=O)NCCN(CCN)CCN)[C@@H]1CC[C@@]2(C)C1C[C@@H](O)C1[C@@]3(C)CC[C@@H](O)[C@@H](C)C3CC[C@@]12C (stereo partly drawn)", "Comparator": "=", "MIC, µg/mL": 4}
{"Compound": "CC(=O)O[C@H]1C[C@@]2(C)C(CCC3[C@@]4(C)CC[C@@H](OS(=O)(=O)O)[C@@H](C)C4CC[C@@]32C)[C@@H]1[C@H](CCCC(C)C)C(=O)NCCN(CCN)CCN (stereo partly drawn)", "Comparator": "=", "MIC, µg/mL": 64}
{"Compound": "CC(C)CCCC(C(=O)NCCN(CCN)CCN)C1=C2C[C@@H](O)C3[C@@]4(C)CC[C@@H](O)[C@@H](C)C4CC[C@]3(C)[C@@]2(C)CC1 (stereo partly drawn)", "Comparator": "=", "MIC, µg/mL": 16}
{"Compound": "CC(=O)O[C@H]1C[C@@]2(C)[C@@H](C[C@@H](O)[C@H]3[C@@]4(C)CC[C@@H](O)[C@@H](C)[C@@H]4CC[C@@]32C)/C1=C(\\CCC=C(C)C)C(=O)O [FA, fusidic acid, reference compound]", "Comparator": ">", "MIC, µg/mL": 64}
{"Compound": "C[C@H](C(=O)NCCCN(CCCN)CCCN)[C@H]1CC[C@H]2[C@@H]3CC=C4C[C@@H](O)CC[C@]4(C)[C@H]3CC[C@]12C", "Comparator": "=", "MIC, µg/mL": 64}
{"Compound": "CC(=O)O[C@H]1C[C@@]2(C)C(C[C@@H](O)C3[C@@]4(C)CC[C@H](O)[C@@H](C)C4CC[C@@]32C)[C@@H]1[C@H](CCCC(C)C)C(=O)NCCN(CCN)CCN (stereo partly drawn)", "Comparator": "=", "MIC, µg/mL": 64}
{"Compound": "CC(=O)O[C@H]1C[C@@]2(C)C(CC=C3[C@]2(C)CCC2[C@H](C)[C@H](O)CC[C@]32C)[C@@H]1[C@H](CCCC(C)C)C(=O)NCCN(CCN)CCN (stereo partly drawn)", "Comparator": "=", "MIC, µg/mL": 16}
{"Compound": "C[C@H](CCC(=O)NCCN(CCN)CCN)[C@H]1CC[C@H]2[C@@H]3CC[C@@H]4C[C@H](O)CC[C@]4(C)[C@H]3[C@H](O)C[C@]12C", "Comparator": "=", "MIC, µg/mL": 4}
{"Compound": "CC(=O)O[C@H]1C[C@@]2(C)C(C[C@@H](O)C3[C@@]4(C)CC[C@@H](O)[C@@H](C)C4CC[C@@]32C)[C@@H]1[C@H](CCCC(C)C)C(=O)NCCN(CCN)CCN (stereo partly drawn)", "Comparator": "=", "MIC, µg/mL": 4}
{"Compound": "CC(=O)O[C@H]1C[C@@]2(C)C(CCC3[C@@]4(C)CC[C@@H](O)[C@@H](C)C4CC[C@@]32C)[C@@H]1[C@H](CCCC(C)C)C(=O)NCCN(CCN)CCN (stereo partly drawn)", "Comparator": "=", "MIC, µg/mL": 16}
{"Compound": "CC(=O)O[C@H]1C[C@@]2(C)C(C[C@@H](O)C3[C@@]4(C)CC[C@@H](OC(C)=O)[C@@H](C)C4CC[C@@]32C)[C@@H]1[C@H](CCCC(C)C)C(=O)NCCCN(CCCN)CCCN (stereo partly drawn)", "Comparator": "=", "MIC, µg/mL": 16}

###

Parameter MIC, tested on E. coli HA165, listed per item.
Reported endpoint: MIC (µg/mL)

{"Compound": "C[C@H](CCC(=O)NCCN(CCN)CCN)[C@H]1CC[C@H]2[C@@H]3CC[C@@H]4C[C@H](O)CC[C@]4(C)[C@H]3[C@H](O)C[C@]12C", "Scale unit": "µg/mL", "Comparator": "=", "Numeric readout": 16}
{"Compound": "CC(C)CCCC(C(=O)NCCN(CCN)CCN)C1=C2C[C@@H](O)C3[C@@]4(C)CC[C@@H](O)[C@@H](C)C4CC[C@]3(C)[C@@]2(C)CC1 (stereo partly shown)", "Scale unit": "µg/mL", "Comparator": ">", "Numeric readout": 64}
{"Compound": "CC(=O)O[C@H]1C[C@@]2(C)[C@@H](C[C@@H](O)[C@H]3[C@@]4(C)CC[C@@H](O)[C@@H](C)[C@@H]4CC[C@@]32C)/C1=C(\\CCC=C(C)C)C(=O)O [FA, fusidic acid, reference compound]", "Scale unit": "µg/mL", "Comparator": ">", "Numeric readout": 64}
{"Compound": "CC(=O)O[C@H]1C[C@@]2(C)C(C[C@@H](O)C3[C@@]4(C)CC[C@@H](O)[C@@H](C)C4CC[C@@]32C)[C@@H]1[C@H](CCCC(C)C)C(=O)NCCN(CCN)CCN (stereo partly shown)", "Scale unit": "µg/mL", "Comparator": "=", "Numeric readout": 16}
{"Compound": "CC(=O)O[C@H]1C[C@@]2(C)C(C[C@@H](O)C3[C@@]4(C)CC[C@@H](OC(C)=O)[C@@H](C)C4CC[C@@]32C)[C@@H]1[C@H](CCCC(C)C)C(=O)NCCCN(CCCN)CCCN (stereo partly shown)", "Scale unit": "µg/mL", "Comparator": "=", "Numeric readout": 16}
{"Compound": "CC(=O)O[C@H]1C[C@@]2(C)C(CCC3[C@@]4(C)CC[C@@H](O)[C@@H](C)C4CC[C@@]32C)[C@@H]1[C@H](CCCC(C)C)C(=O)NCCN(CCN)CCN (stereo partly shown)", "Scale unit": "µg/mL", "Comparator": "=", "Numeric readout": 16}
{"Compound": "CC(=O)O[C@H]1C[C@@]2(C)C(CC=C3[C@]2(C)CCC2[C@H](C)[C@H](O)CC[C@]32C)[C@@H]1[C@H](CCCC(C)C)C(=O)NCCN(CCN)CCN (stereo partly shown)", "Scale unit": "µg/mL", "Comparator": "=", "Numeric readout": 16}

###

tested on: Streptococcus faecium EI19; experiment: agar cup assay MIC; type: cell-based; settings: Enterococcus faecium; Streptococcus faecium EI19 (Penicillin resistant); agar with 5% sheep blood

{"Compound": "CC(C)CCCC(C(=O)NCCN(CCN)CCN)[C@@H]1CC[C@@]2(C)C1C[C@@H](O)C1[C@@]3(C)CC[C@@H](O)[C@@H](C)C3CC[C@@]12C (stereo partly drawn)", "MIC": "16 µg/mL"}
{"Compound": "CC(=O)O[C@H]1C[C@@]2(C)C(CCC3[C@@]4(C)CC[C@@H](O)[C@@H](C)C4CC[C@@]32C)[C@@H]1[C@H](CCCC(C)C)C(=O)NCCN(CCN)CCN (stereo partly drawn)", "MIC": "16 µg/mL"}
{"Compound": "C[C@H](CCC(=O)NCCN(CCN)CCN)[C@H]1CC[C@H]2[C@@H]3CC[C@@H]4C[C@H](O)CC[C@]4(C)[C@H]3[C@H](O)C[C@]12C", "MIC": "16 µg/mL"}
